# Test system: K562
# ASSAY DETAILS: Cytotoxicity on K562 cancer cell line
# Assay type: cell-based
# RUN CONDITIONS: Homo sapiens; K562 chronic myelogenous leukemia; 96 h; 0.01-100 μM
TEST READOUT: IC50

{"COMPOUND": "CN1CCN(c2ccc(Nc3ncc(/C=C/C#N)c(Nc4ccn(C)n4)n3)cc2)CC1", "IC50": "1 to 25 µM"}
{"COMPOUND": "O=S(=O)(/C=C/c1cnc(N2CCOCC2)nc1NC1CCCC1)c1ccc(F)cc1N1CCOCC1 [Compound 15p]", "IC50": "50 to 100 µM"}
{"COMPOUND": "COc1ccc(S(=O)(=O)/C=C/c2cnc(N3CCOCC3)nc2NC2CCCC2)cc1 [Compound 15o]", "IC50": "1 to 25 µM"}
{"COMPOUND": "CN1CCN(c2ccc(Nc3ncc(/C=C/C#N)c(NC4CCCC4)n3)cc2)CC1", "IC50": "< 1 µM"}
{"COMPOUND": "CN1CCN(c2ccc(N(C(=O)CCCC[C@@H]3SC[C@@H]4NC(=O)N[C@@H]43)c3ncc(/C=C/C#N)c(NC4CCCC4)n3)cc2)CC1", "IC50": "1 to 25 µM"}
{"COMPOUND": "COc1ccc(Nc2ncc(/C=C/C#N)c(NCC3CC3)n2)cc1", "IC50": "1 to 25 µM"}

Indicate the recorded IC50 value for this compound: `N#C/C=C/c1cnc(Nc2ccc3[nH]ccc3c2)nc1NC1CCCC1` < 1 µM

Tell me its IC50 given COc1ccc(S(=O)(=O)/C=C/c2cnc(Nc3ccc(N4CCN(C)CC4)cc3)nc2Nc2ccn(C)n2)cc1 [Compound 15q] as the entry. < 1 µM

Kindly indicate its recorded IC50. Item: Cn1ccc(Nc2nc(Nc3ccc4[nH]ccc4c3)ncc2/C=C/S(=O)(=O)c2ccc(F)cc2F)n1 [Compound 15s] 1 to 25 µM

Provide only the value of recorded IC50 for `N#C/C=C/c1cnc(Nc2ccc3[nH]ccc3c2)nc1NCC1CC1` < 1 µM

# return recorded IC50 for entry `CN1CCC(c2ccc(Nc3ncc(/C=C/C#N)c(NC4CCCC4)n3)cc2)CC1` 1 to 25 µM

Dear colleague, please send me the reported IC50 for `CN1CCN(c2ccc(Nc3ncc(/C=C/C#N)c(NC4CCCCC4)n3)cc2)CC1` when you can. < 1 µM

Write down IC50 measured for item `CC(C)Nc1nc(Nc2ccc(N3CCN(C)CC3)cc2)ncc1/C=C/C#N` < 1 µM
